- Tested on: Mus musculus
- assayText: Induction of CNS depressant activity in albino CF-1 Mus musculus (mouse) assessed as increase in immobility at 100 mg/kg, ip measured after 30 min by Porsolt's force swim pool method
- Format: organism-based, Central nervous system
- Design: dose 100 mg/kg, route intraperitoneal
- conditionSummary: in vivo, 0.5 h
quantityKind: Activity (%)
Answers are plain numbers, in %.

CCOc1cccc(/C=N/n2c(-c3ccccc3)nc3ccccc3c2=O)c1 : 29.6
CCCOc1cccc(/C=N/n2c(-c3ccccc3)nc3ccccc3c2=O)c1 : 52.18
NC(=O)N1c2ccccc2C=Cc2ccccc21 [CARBAMAZEPINE] : 56.35

Next item in the queue.
Form field Activity, entry `C=CCCOc1cccc(/C=N/n2c(-c3ccccc3)nc3ccccc3c2=O)c1` : 110.81

====

- Test system: Mus musculus
- assayText: Induction of CNS depressant activity in albino CF-1 Mus musculus (mouse) assessed as duration of immobility at 100 mg/kg, ip measured after 30 min by Porsolt's force swim pool method (reference value: 52.7 +/-0.70 secs)
- Type: organism-based, Central nervous system
- Design: dose 100 mg/kg, route intraperitoneal
- conditionSummary: in vivo, 0.5 h
quantityKind: Time (s)
Numbers only, in s.

NC(=O)N1c2ccccc2C=Cc2ccccc21 [CARBAMAZEPINE] : 82.4
C=CCCOc1cccc(/C=N/n2c(-c3ccccc3)nc3ccccc3c2=O)c1 : 111.1

Give Time for each of the items listed below.
1. CCOc1cccc(/C=N/n2c(-c3ccccc3)nc3ccccc3c2=O)c1
2. CCCOc1cccc(/C=N/n2c(-c3ccccc3)nc3ccccc3c2=O)c1

Response:
1. 68.3
2. 80.2

====

- Species: Mus musculus
- assayText: Anticonvulsant activity in albino CF-1 Mus musculus (mouse) assessed as minimum dose required to protect half or more animals against maximal electroshock-induced seizures measured after 4 hr by electroshock seizure method
- Type: functional
- conditionSummary: albino CF-1, 4 h, read-out: MED
quantityKind: minimal effective dose (mg/kg)
One number for each entry, in mg/kg.

Example entries and their recorded answers appear below.
O=c1c2ccccc2nc(-c2ccccc2)n1/N=C/c1cccc(OCc2ccccc2)c1 : 300
CCCOc1cccc(/C=N/n2c(-c3ccccc3)nc3ccccc3c2=O)c1 : 30
CCOc1cccc(/C=N/n2c(-c3ccccc3)nc3ccccc3c2=O)c1 : 100

For each of the compounds below, state minimal effective dose.
1. O=c1c2ccccc2nc(-c2ccccc2)n1/N=C/c1cccc(O)c1
2. CCCCOc1cccc(/C=N/n2c(-c3ccccc3)nc3ccccc3c2=O)c1
3. O=C1NC(=O)C(c2ccccc2)(c2ccccc2)N1 [PHENYTOIN]
4. NC(=O)N1c2ccccc2C=Cc2ccccc21 [CARBAMAZEPINE]
5. COc1cccc(/C=N/n2c(-c3ccccc3)nc3ccccc3c2=O)c1
6. C=CCCOc1cccc(/C=N/n2c(-c3ccccc3)nc3ccccc3c2=O)c1
7. CC(C)Oc1cccc(/C=N/n2c(-c3ccccc3)nc3ccccc3c2=O)c1
8. C=CCOc1cccc(/C=N/n2c(-c3ccccc3)nc3ccccc3c2=O)c1

Response:
1: 100; 2: 100; 3: 30; 4: 30; 5: 100; 6: 100; 7: 300; 8: 300
